Test system: K4 kissing-loop RNA reporter;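 further: bound reporter read as fluorescence of individual clusters on recovered sequencing chips by microscopy, with normalized cluster intensities fitted with a binding model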
TEST METHOD NOTES: apparent KD of K4 kissing-loop reporter; higher = weaker reporter binding
SETTINGS: Eterna round: R107; input ligand: theophylline 20 uM
Exercise: for every item that follows, state its recorded apparent KD of K4 kissing-loop reporter.

Query block: Data request, read-out apparent KD of K4 kissing-loop reporter, for AAUAUAGUGAUGUUAUAUAAGGAAAGAAGGCGAGGACCGGUACGGCCGCCACUCGAAAGGUGAGAAGGUGGCGAAGAAGAAAGAA [ExTryptoA.B]
Result block: 433 nM

Query block: Bench note: what apparent KD of K4 kissing-loop reporter did ACAUGAGUGAUGUUCAUGUGGAGCAGGGUACGAGGACCGGUACGGCCGCCACUCGAGAGUUAUGACGAGUUAAUGGCAACGAUGU [KL-Tryp-A8 #analogue] show?
Result block: 96.3 nM

Query block: I am curious: what apparent KD of K4 kissing-loop reporter value has been reported for AUUUAUUACAGAAGGAGCGUGUAUUUAUAAUCAUUUAUCUUAGCGAGUGAUGUUCGCUUUACACAGGUAGGUCGCUGUUUAUUUA [JR_Nu_ExcArginiB_Sub027] ?
Result block: 133 nM

Query block: Which apparent KD of K4 kissing-loop reporter is reported for this sequence? AGCUCAGAGUGACUCGAUAAGAGUCACAAACGAGGACCGGUACGGCCGCCACUCGAAACAAAGAGAGUGAUGUUCUCGCUGAGCA [FiskerMod 10 - Jieux - Same State Tryptophan A]
Result block: 207 nM

Query block: Please look up its apparent KD of K4 kissing-loop reporter: GGCAUGGUGACGCGGCUGCCAUGCACUUGGGAGGAUAUGUUUCGUGACAGAAGGCCCAGUGAUGUUGGGUCUGUUCAAAAGGACU [Lerere]
Result block: 148 nM

Query block: Fill blank: measured apparent KD of K4 kissing-loop reporter of the sequence UUAGAGAUCUCAGGAUAUCAGUGAUGUUGGUGUGAAGAUCUGAGAUAGAAUUCUAUCUCAGAUCAAUGAGAAGGGAGAUCUCAUU [AK3.1 Exc FMN B] is ____.
Result block: 181 nM

Query block: Dear colleague, I am looking for the recorded apparent KD of K4 kissing-loop reporter of the following sequence: AGAAGAUAUCAAGAUACCAGCUCCCGGCCCAAAACCCAGAUACACGAGUGAUGUUCGUUCAGCCCUUGGCAGCUUGCCUAGUUCU [theeternabot_sameState_KL_Theo_B_6]
Result block: 163 nM

Query block: Quick one: apparent KD of K4 kissing-loop reporter of CAGAACAUAUAUAGAAACUAUAUAUGAGAUACCAGUCAAAUUAAAGACCCUUGGCAGCUCAGGCGAGUGAUGUUCGCAGGCUAAC [Astros-Gfrank-modulation#2] ?
Result block: 122 nM

Query block: Value lookup for apparent KD of K4 kissing-loop reporter; key = CAUAGGAAACUAUGUAUCUCUCUUACUGAAGGAGCGCGUGAAAACGCAGGUAGGUCGCAGAAUUUAAUAGAGAGUGAUGUUCUCU [Ex Arginine A K4 7]
Result block: 244 nM

Query block: Given AAACAUCACUGGGAGUGAUGUUCUCAGUGACGAGGACCGGUACGGCCGCCACUCGCGAGAGAUAUAGGUAAGUAAUGACAUCAUU [Excl Tryptophan A V5] , state its recorded apparent KD of K4 kissing-loop reporter.
Result block: 327 nM

Query block: What measured apparent KD of K4 kissing-loop reporter goes with AGUGGACAUGUCUAGAGUGAUGUUCUGGAUACCAGACACGAAAGUGUCCCUUGGCAGCCGGAGUGAUGUUCUGGAGUUCACUAAA [Omei KL Theo A Exc B v8] ?
Result block: 485 nM

Query block: // lookup apparent KD of K4 kissing-loop reporter for GGCAGUGAUGUUGCCAGUGGCAGAUUGGAAGGAGCGUGGUGAGACACAGGUAGGUCGCUAAUUGAAAUUGCUGUCACUAAAAUGC [whbob_Ex_Arginine_A_2t130]
Result block: 308 nM

Query block: Form field: reported apparent KD of K4 kissing-loop reporter of UGUAUGUGAUUUGAUACCAGACCAGGUGGAGGAAUCUGAGUGAUGUUCAGGUAGGUUCUGGUCCCUUGGCAGCAAAUCGCAUACU [KL-SSTheoB19]
Result block: 150 nM

Query block: Report apparent KD of K4 kissing-loop reporter for UGGACGAUAUACGAUAAGUAUAUCUGGGAUACCAGUGACGAAAGUCACCCUUGGCAGCUCAACUGCCAGUGAUGUUGGUAGUCCA [#17 K4 Theophylline A Same State] please.
Result block: 182 nM

Query block: Please report the recorded apparent KD of K4 kissing-loop reporter for GAAGGAGACAACAUCACUACUCCUUCAGACUAGGAUAUCAGGAAACUGAGAAGGAGUCUACUUGCAGUGAUGUUGCAAGAAUAAU [[F]''-[K]'-[F]'-[F1]-[F2]-[K1]-[K2]_Design2] .
Result block: 148 nM

Query block: Which apparent KD of K4 kissing-loop reporter is listed for UGACAUUGCUCAGAUACCAGUCAUGAGGAUCACCCAUGGGCCAAAACGUACUAAAUAAAUGACCCUUGGCAGCUGAGCAAUGUCU [TheoBX 13] ?
Result block: 165 nM

Query block: I have this sequence here, CGAGAAUGUCGACAGUCAUCGGUCCAUGCACGAGGACCGGUACGGCCGCCACUCGAGCGUGGCAGUGAUGUUGCCAGCGCACUAA [KL-XTryp-A14] , and I need its recorded apparent KD of K4 kissing-loop reporter.
Result block: 86 nM

Query block: Param item = AGGUAUGUCUGAAGGAGCGACUAAGAAGCAGUGAUGUUGCUAAGUAGUAAGUAGCUACGUAGUCAGGUAGGUCGCAGAUAUACCU [Arg B SS t14] ; retrieve measured apparent KD of K4 kissing-loop reporter.
Result block: 349 nM

Query block: Suppose we examine the sequence AAACAUCACUGGGAGUGAUGUUCUCAGUGACGAGGACCGGUACGGCCGCCACUCGCGAGAGAACUAGUCUAGUCUUGACUGCAUU [Excl Tryptophan A V14] ; what apparent KD of K4 kissing-loop reporter value has been reported?
Result block: 418 nM

Query block: Can you share its apparent KD of K4 kissing-loop reporter? I mean this sequence: AGUGAUGUUGAGUUAUCUUAGUGAAGUGAUCGAGGACCGGUACGGCCGCCACUCGAGUGAUGAGUGAGUGAUGUUUGUUUAGGGA [llkmullin]
Result block: 765 nM

Query block: Using the record for `GCCGUACGCAUGGAUACCAGCUAUUAGAGUGAUGUUCUAUGGCCCUGCCAGAGUAGCUGUAGCCCUUGGCAGCCAUGCGUACGGC` , report its apparent KD of K4 kissing-loop reporter.
Result block: 144 nM

Query block: Quick one: apparent KD of K4 kissing-loop reporter for AUAUUAACUCAGUGAUGUUGAGUUGACGAAGGAGCGCUAGAGAUAGCAGGUAGGUCGCGUCAAUUUAAUGGAGACUAGCUUUACG [Arg A Ex t4] ?
Result block: 351 nM

Query block: Recorded apparent KD of K4 kissing-loop reporter of GGCAGUGAUGUUGCCAGUGGCAGAUGCGAAGGAGCGCAGUGAGAUGCAGGUAGGUCGCGCAUUGAAAUUGCUGUCACUAAAAUGC [#2] , please.
Result block: 276 nM
